Biological target: MAGI2_5, Q86UL8
Sequence (Q86UL8 915-1017): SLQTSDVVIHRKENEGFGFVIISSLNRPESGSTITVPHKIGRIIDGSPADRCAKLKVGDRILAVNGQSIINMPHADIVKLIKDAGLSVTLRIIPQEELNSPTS
Assay: holdup assay
Set-up: key: below the threshold = too weak to quantify, mostly under pKd 3.1 to 4
Conditions: plain residues with an end cap or a label only (N-terminal biotin on a linker: ado-ado)
Would you mind telling me the reported pKd of each entry?
Give the value as a plain number.

Query (binder): TISFTQTSQF [SLC1A1, P43005] ; field requested: pKd
4.29

State the recorded pKd for this entry: VKRNSKETVV [MARCHF3, Q86UD3]
3.98

// query pKd value for entry KKMLQRRTLL [OR8G1, Q15617]
4.59

Could you tell me which pKd is on file for TGLWKHETTV [ADGRA3, Q8IWK6] ?
4.41
